target or test system: CyclinA2/CDK2 (Homo sapiens)
Construct: purchased CRELUX Protein Services
assay procedure: Fluorescence Polarization (FP) competitive binding assay, Cyclin A2/Cdk2;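 note: plates equilibrated two hours at room temperature before polarization reading, IC50 fitted from eight-concentration compound titration curves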
experimental parameters: 8 nM Cyclin A2/Cdk2, 2 nM FAM probe; average of 2-3 independent experiments; read-out: Cyclin A FP IC50
*1 amine or outer side, *2 acyl side, *3 side chain or, on linkers, in order; H or OH if unused. Where a SMILES comes first, the peptide text is derived from it. Bridges are numbered along the chain shown (N, C = ends). [ ]: non-standard residue; d: D form. The star is where a group is joined. X47 = C[C@@H]1CN(c2ccc(-c3ccc(Cl)cc3C[C@@H](C(=O)[*:2])N(C)[*:1])cc2)C[C@H](C)N1C; X142 = CN([C@@H](Cc1cc(Cl)ccc1C1=CCN(S(C)(=O)=O)CC1)C(=O)[*:2])[*:1]; NMehhhLys(Me) = CN([C@@H](CCCCCCCN(C)[*:3])C(=O)[*:2])[*:1]; NMe(hhhLys) = CN([C@@H](CCCCCCCN[*:3])C(=O)[*:2])[*:1]; cBuCO(3,3-F2-1-CF3) = O=C(C1(C(F)(F)F)CC(F)(F)C1)*; Pro(trans-4-F) = O=C(O)[C@@H]1C[C@@H](F)CN1; Gly(cPr) = N[C@H](C(=O)O)C1CC1
Record form. Attribute: IC50. Fill in for each entry.
API: value field is a number in nM; no unit string.

Recorded IC50 of CC(C)C[C@@H]1NC(=O)[C@@H](N(C)C(=O)[C@@H](NC(=O)[C@@H]2C[C@@H](F)CN2C(=O)C2(C(F)(F)F)CC(F)(F)C2)C2CC2)CCCCCCCNC(=O)[C@H](Cc2cc(Cl)ccc2C2=CCN(S(C)(=O)=O)CC2)N(C)C1=O [Example 284] ({cBuCO(3,3-F2-1-CF3)}-[Pro(trans-4-F)][Gly(cPr)][NMe(hhhLys)]L[X142]; lactam 3-C) , please.
20

Recorded IC50 of CC(C)C[C@@H]1NC(=O)[C@@H](N(C)C(=O)[C@@H](NC(=O)[C@@H]2C[C@@H](F)CN2C(=O)C2(C(F)(F)F)CC(F)(F)C2)C2CC2)CCCCCCCN(C)C(=O)[C@H](Cc2cc(Cl)ccc2-c2ccc(N3C[C@@H](C)N(C)[C@@H](C)C3)cc2)N(C)C1=O [Example 384] ({cBuCO(3,3-F2-1-CF3)}-[Pro(trans-4-F)][Gly(cPr)][NMehhhLys(Me)]L[X47]; lactam 3-C) , please.
20
